# Test system: Spodoptera litura GSTs
# assay.comment: Inhibition of total GSTs enzyme of Spodoptera litura (CDNB method)
# Format: biochemical
# assay.setup: 100 μM
So I've got a bunch of compounds here, and I need their 100 μM Inhibition rate % values.
Give bare numbers, in %.

For the compound CCCCCCSC[C@H](NC(=O)CC[C@H](N)C(=O)O)C(=O)NCC(=O)O [GTX, S-Hexylglutathione, reference compound] , what 100 μM Inhibition rate % is on record?
85.61

What about COc1ccccc1OCC(=O)NNC(=O)c1cc(-c2ccccc2)nn1-c1ccccc1 [PXG18] ?
7.95

What about O=C(CNc1ccccc1)NNC(=O)c1cc(-c2ccccc2)nn1-c1ccccc1 [PXG3] ?
17.09

Now look at this one.
For the compound O=C(NNC(=O)c1cc(-c2ccccc2)nn1-c1ccccc1)c1ccccc1 [PXG11] , what 100 μM Inhibition rate % is on record?
24.52
